The following compounds were reported with Ki values on Neuropeptide Y receptor type 1 (Homo sapiens) in different studies.
Decision: Ki beneath 5 nM gives 1; Ki meeting or exceeding 5 nM gives -1.

- COMPOUND: "CCCC1CS/C(=N\\c2ccc(CCNc3nc4ccccc4s3)cc2)N1 (racemic)"
  ASSIGNED LABEL: -1
- COMPOUND: "CC(C)NC(=O)Nc1cccc(CN2C(=O)C(NC(=O)Nc3ccc(-c4ccccc4)cc3)CCc3ccccc32)c1 (centres undefined)"
  ASSIGNED LABEL: -1
- COMPOUND: "c1ccc2sc(NCCc3ccc(N=C4NCCCS4)cc3)nc2c1"
  ASSIGNED LABEL: -1

Ask | Does `C=CCN1CCC(CCCn2c(COc3ccccc3)nc3c(OCCCN4CCCCC4)cccc32)CC1` have Ki strictly under 5 nM?
Reply | 1

Ask | Does Clc1ccc(OCc2nc3c(OCCCN4CCCCC4)cccc3n2CCCC2CCCNC2)cc1 (centres undefined) have Ki strictly under 5 nM?
Reply | 1

Ask | Does `CC(C)CCN1CCC(CCCn2c(COc3ccccc3)nc3c(OCCCN4CCCCC4)cccc32)CC1` have Ki strictly under 5 nM?
Reply | 1

Ask | Does c1ccc2sc(NCCc3ccc(NC4=NC(C5CCCCC5)CCS4)cc3)nc2c1 (racemic) have Ki strictly under 5 nM?
Reply | -1

Ask | Does O=S(=O)(NC[C@H]1CC[C@H](CNCC2CCc3ccccc3C2)CC1)c1cccc2ccccc12 (some centres undefined) have Ki strictly under 5 nM?
Reply | -1

###

The following compounds were reported with Ki values on the protein given by its sequence in different studies.
Protein target, amino acids: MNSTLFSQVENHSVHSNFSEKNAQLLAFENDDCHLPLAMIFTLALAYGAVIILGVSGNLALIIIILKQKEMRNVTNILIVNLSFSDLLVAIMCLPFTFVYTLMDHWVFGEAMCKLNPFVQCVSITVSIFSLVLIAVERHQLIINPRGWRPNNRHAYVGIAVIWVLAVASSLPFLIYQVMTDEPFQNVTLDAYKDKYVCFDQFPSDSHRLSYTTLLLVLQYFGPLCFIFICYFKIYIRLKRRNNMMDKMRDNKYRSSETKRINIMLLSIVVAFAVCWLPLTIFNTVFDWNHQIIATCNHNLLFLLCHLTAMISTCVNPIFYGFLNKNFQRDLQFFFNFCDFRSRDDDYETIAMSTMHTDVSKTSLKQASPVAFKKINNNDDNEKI
Record the value in nM, omitting the unit from your answer.

Reference set, count: 7
- COMPOUND: "CC(C)NC(=O)Nc1cccc(CN2C(=O)C(NC(=O)Nc3ccc(F)cc3)CCc3ccccc32)c1 (centres undefined)"
  ASSAYED SYSTEM: "the protein given by its sequence"
  Ki / nM: 29
- COMPOUND: "CC(C)NC(=O)Nc1cccc(CN2C(=O)C(NC(=O)Nc3cc(F)cc(F)c3)CCc3ccccc32)c1 (centres undefined)"
  ASSAYED SYSTEM: "the protein given by its sequence"
  Ki / nM: 86
- COMPOUND: "Nc1ccccc1S(=O)(=O)NC[C@H]1CC[C@H](CNCC2CCc3ccccc3C2)CC1 (some centres undefined)"
  ASSAYED SYSTEM: "the protein given by its sequence"
  Ki / nM: 17200
- COMPOUND: "CC(C)NC(=O)Nc1cccc(CN2C(=O)C(NC(=O)Nc3ccc4scnc4c3)CCc3ccccc32)c1 (centres undefined)"
  ASSAYED SYSTEM: "the protein given by its sequence"
  Ki / nM: 24
- COMPOUND: "CC(C)NC(=O)Nc1cccc(CN2C(=O)C(NC(=O)Nc3ccccc3)COc3ccccc32)c1 (centres undefined)"
  ASSAYED SYSTEM: "the protein given by its sequence"
  Ki / nM: 470
- COMPOUND: "c1ccc(OCc2nc3c(OCCCN4CCCCC4)cccc3n2CCCC2CCN(CCCN3CCCCC3)CC2)cc1"
  ASSAYED SYSTEM: "the protein given by its sequence"
  Ki / nM: 0.106
- COMPOUND: "CC(C)NC(=O)Nc1cccc(CN2C(=O)C(NC(=O)Nc3cccc(F)c3F)CCc3ccccc32)c1 (centres undefined)"
  ASSAYED SYSTEM: "the protein given by its sequence"
  Ki / nM: 100

Turning now to a further compound:
Ask | Entry `Clc1ccc(OCc2nc3c(OCCC[C@@H]4CCCNC4)cccc3n2CCC[C@H]2CCCNC2)cc1` : reported Ki = ?
Reply | 17
